Tested on: Vero C1008
Test: Cytotoxicity against African green monkey Vero E6 cells assessed as cell growth inhibition after 48 hrs by celltitre 96 aqueous one-based assay
Conditions: Chlorocebus sabaeus, Vero C1008, 48 h
measurement-type: IC50 (µM)
Response body: numeric value in µM, unit text excluded.

compound | output-unit | recorded-measurement
CCCCCCCCn1cc(CN2CCC3(CC2)OCCCO3)c2ccc(OCc3ccccc3)cc21 | µM | 27

Which IC50 reading was recorded for the compound `COc1ccc(CCCn2cc(CN3CCC4(CC3)OCCO4)c3ccc(OC)cc32)cc1` ?
31

Again, but for `CCCCCCCCn1cc(CN2CCC3(CCO3)CC2)c2ccc(OC)cc21`
31

Again, but for `CCCCCCCCn1cc(CN2CCC3(CC2)SCCCS3)c2ccc(OC)cc21`
152
